Target: T1, 4H675-AA
T1 chain: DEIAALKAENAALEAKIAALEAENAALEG
Test: two-hybrid library CCmax;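 further: natural log of median RNA to DNA barcode read ratio; higher means stronger binding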
Conditions: mean of both orientations
recordedEndpoint: interaction score

>>> endpointvalue("DENAALEAKIAALKAEIAALEAENAALKG [4H1348-AA]")
-1.36
>>> endpointvalue("DKIAALKAKNAALEAEIAALEAENAALKG [4H2948-AA]")
-0.414
>>> endpointvalue("DKIAALKAKNAALKAKNAALKAEIAALKG [4H3066-AA]")
-1.19
>>> endpointvalue("DKNAALEAKIAALKAENAALKAEIAALEG [4H3417-AA]")
-0.587
>>> endpointvalue("DKIAALKAENAALEAENAALKAEIAALEG [4H2713-AA]")
-1.83
>>> endpointvalue("DEIAALEAENAALEAENAALEAEIAALKG [4H146-AA]")
-2.03
>>> endpointvalue("DEIAALEAKNAALEAKIAALKAENAALKG [4H428-AA]")
0.166
>>> endpointvalue("DEIAALEAENAALEAKNAALKAKIAALEG [4H189-AA]")
-1.31
>>> endpointvalue("DKIAALKAENAALEAKNAALEAKIAALKG [4H2742-AA]")
-1.53
>>> endpointvalue("DENAALEAEIAALEAEIAALKAENAALEG [4H1035-AA]")
-2.03
>>> endpointvalue("DKIAALEAENAALKAEIAALEAKNAALKG [4H2248-AA]")
0.827
